- Tested on: blackgrass
- protocol_summary: Test C postemergence
- Type: in vivo, Alopecurus myosuroides
- assay_context: Postemergence, 1000 g ai/ha; 0 to 100 scale, 0 no effect, 100 complete control
reported_property: Plant response rating, Blackgrass

• Cc1ccc(-c2cccc(C(=O)N3C[C@H](C)Oc4c(C)cccc43)c2)cn1 = 0
• C[C@H]1CN(C(=O)c2cccc(N3CCOCC3)c2)c2cccc(Cl)c2O1 = 0
• C[C@H]1CN(C(=O)c2cccc(-n3ccnn3)c2)c2cccc(Cl)c2O1 = 20
• Cc1cnc(-c2cccc(C(=O)N3C[C@H](C)Oc4c(C)cccc43)c2)cn1 = 0
• CC1CN(C(=O)c2ccnc(-c3ccccn3)c2)c2cccc(Cl)c2O1 (centres unmarked) = 0
